# Protocol: chemical genetic growth profiling, strain panel (AID 1159580);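 also: tested at 20 µM; growth read once vehicle control cultures reached saturation at 30 °C; 1 = growth at the plate median or of vehicle wells; lower values mean less growth of the strain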
# Applied conditions: S. cerevisiae deletion strains, growth OD, locus YLR320W, strain mms22, hits give low values
In all, about 5,500 compounds went through this assay and about 2,000 (36%) were called active. Inconclusive results (about 18%) are left out. The list shows a part of the results.
Please go through the items and note down their normalized growth.
Give the figure by itself; no unit, no explanation.

Which normalized growth reading was recorded for the compound Cc1cc(O)cc(=O)o1 ?
1.05

Which normalized growth reading was recorded for the compound Cc1cc(O)cc(O)c1C(=O)O ?
1.03

Which normalized growth reading was recorded for the compound N#CC(O[C@@H]1O[C@H](CO[C@@H]2O[C@H](CO)[C@@H](O)[C@H](O)[C@H]2O)[C@@H](O)[C@H](O)[C@H]1O)c1ccccc1 (some centres not stated) ?
0.968

Which normalized growth reading was recorded for the compound O=C(O)CC(O)(CC(=O)O)C(=O)O ?
0.998

Which normalized growth reading was recorded for the compound Cc1cc(O)ccc1Cl ?
0.959

Which normalized growth reading was recorded for the compound Cc1cc(O)cc(C)c1Cl ?
0.815

Which normalized growth reading was recorded for the compound CCCCCCCCCCCCCCC(C(=O)O)C(O)(CC(=O)OC)C(=O)O (configuration not stated) ?
0.996

====

# Protocol: chemical genetic growth profiling, strain panel (AID 1159580);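 also: tested at 20 µM; growth read once vehicle control cultures reached saturation at 30 °C; 1 = growth at the plate median or of vehicle wells; lower values mean less growth of the strain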
# Applied conditions: S. cerevisiae deletion strains, growth OD, locus YIL125W, strain kgd1, hits give low values
Among all 5,500 compounds or so, about 2,000 (36%) were called active. Not shown: some 18% with an inconclusive outcome. This is one part of the list.
Please go through the items and note down their normalized growth.
Give the figure by itself; no unit, no explanation.

Which normalized growth reading was recorded for the compound CC(=O)OC1CC[C@@]2(C)C(CC[C@]3(C)C2CCC2C4CC(C)(C)CCC4(C(=O)O)CC[C@]23C)C1(C)C (some centres not stated) ?
0.979

Which normalized growth reading was recorded for the compound Cc1ccc(-c2cc(C(F)(F)F)nn2-c2ccc(S(N)(=O)=O)cc2)cc1 ?
1.01

Which normalized growth reading was recorded for the compound COc1cc(N)c(Cl)cc1C(=O)NC1CCN(Cc2ccccc2)CC1 ?
0.997

Which normalized growth reading was recorded for the compound Cc1cc(O)cc(O)c1C(=O)O ?
0.993

Which normalized growth reading was recorded for the compound CC1(C)CC[C@]2(C(=O)O)CC[C@]3(C)C(=CCC4[C@@]5(C)CC[C@H](O)[C@@](C)(CO)C5CC[C@]43C)C2C1 (some centres not stated) ?
0.99

Which normalized growth reading was recorded for the compound C[C@@H]1OC(O[C@H]2[C@H](O)[C@@H](O)[C@H](OC[C@H]3O[C@@H](OC(=O)[C@]45CCC(C)(C)CC4C4=CCC6[C@@]7(C)CC[C@H](OC8OC[C@H](O)[C@H](O)[C@H]8OC8O[C@@H](C)[C@H](O)[C@@H](O)[C@H]8O)[C@@](C)(CO)C7CC[C@@]6(C)[C@]4(C)CC5)[C@H](O)[C@@H](O)[C@@H]3O)O[C@@H]2CO)[C@H](O)[C@H](O)[C@H]1O (some centres not stated) ?
0.983

Which normalized growth reading was recorded for the compound O=c1oc2cc(O)ccc2s1 ?
0.982

====

Please go through the items and note down their normalized growth.
# Protocol: chemical genetic growth profiling, strain panel (AID 1159580);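 also: tested at 20 µM; growth read once vehicle control cultures reached saturation at 30 °C; 1 = growth at the plate median or of vehicle wells; lower values mean less growth of the strain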
# Applied conditions: S. cerevisiae deletion strains, growth OD, locus YKL190W, strain CNB1, hits give low values
Out of some 5,500 compounds screened, about 2,000 (36%) were called active. Roughly 18% stayed inconclusive and do not appear here. This is one part of the list.
Give the figure by itself; no unit, no explanation.

Which normalized growth reading was recorded for the compound CCOP(=S)(OCC)Oc1cc(C)nc(C(C)C)n1 ?
0.993

Which normalized growth reading was recorded for the compound C/C=C(/C)C(=O)OC1CCC2(C)C3CCC4C5(O)CC(O)C6(O)C(CN7CC(C)CCC7C6(C)O)C5(O)CC42OC13O (stereo not given) ?
0.979

Which normalized growth reading was recorded for the compound Cc1cc(C)cc(NC(=S)N2CCN(c3ncc(C(F)(F)F)cc3Cl)CC2)c1 ?
0.98

Which normalized growth reading was recorded for the compound C=C1SC(=Nc2cccc(OC)c2)N(C(=O)C(c2ccccc2)C2CCCC2)C1(C)C (stereo not given) ?
0.977

Which normalized growth reading was recorded for the compound FC(F)(F)c1cnc(N2CCN(C(=S)Nc3ccccc3)CC2)c(Cl)c1 ?
1.01

Which normalized growth reading was recorded for the compound Cc1ccc2[nH]c3c(c2c1)CCCC3 ?
0.989

Which normalized growth reading was recorded for the compound CCOC(=O)c1sc(-c2ccc(C)cc2)nc1O ?
0.46

Which normalized growth reading was recorded for the compound N=C(N)c1ccc(OCCCCCOc2ccc(C(=N)N)cc2)cc1 ?
0.959

Which normalized growth reading was recorded for the compound CC(=O)NC(C(=O)O)C(C)(C)SN=O (stereo not given) ?
1.01

Which normalized growth reading was recorded for the compound C#C[C@]1(OC(C)=O)CCC2C3CCC4=CC(=O)CC[C@@H]4C3CC[C@@]21C (stereo not given in full) ?
0.977

Which normalized growth reading was recorded for the compound C[C@@H]1CC[C@H]2[C@@H](C)C(=O)O[C@@H]3O[C@@]4(C)CC[C@@H]1[C@]32OO4 ?
0.856

Which normalized growth reading was recorded for the compound CCOC(=O)c1nc(-c2ccccc2)sc1C(=O)OCC ?
0.961

Which normalized growth reading was recorded for the compound O=C(O)c1ccc(N=Cc2ccc3c(c2)OCO3)cc1 ?
1

Which normalized growth reading was recorded for the compound C[C@@H]1CC[C@H]2[C@@H](C)C(O)O[C@@H]3O[C@@]4(C)CC[C@@H]1[C@]32OO4 (stereo not given in full) ?
0.231

Which normalized growth reading was recorded for the compound CCC(C)C(NC)C(=O)O (stereo not given) ?
1

Which normalized growth reading was recorded for the compound C[C@@H]1CC[C@]2(C(=O)O)CC[C@]3(C)C(=CCC4[C@@]5(C)CC[C@H](O)C(C)(C)C5CC[C@]43C)C2[C@H]1C (stereo not given in full) ?
1.02

Which normalized growth reading was recorded for the compound C[C@@H]1C(=O)O[C@H]2[C@H]1CC[C@@]1(C)C=CC(=O)[C@@]3(C)O[C@@]213 ?
1.01

Which normalized growth reading was recorded for the compound CC1(C)CC[C@@]2(C(=O)O)C(C1)C1=CCC3[C@@]4(C)CC[C@H](O)C(C)(C)C4CC[C@@]3(C)[C@]1(C)C[C@@H]2O (stereo not given in full) ?
1.03

Which normalized growth reading was recorded for the compound O=C(O)/C=C1\CCCc2ccccc2C1O (stereo not given) ?
0.996

Which normalized growth reading was recorded for the compound CC(C)=CCCC1(C)C=Cc2c(O)c3c(c(CC=C(C)C)c2O1)OC12C(=CC4CC1C(C)(C)OC2(C/C=C(\C)C(N)=O)C4=O)C3=O (stereo not given) ?
0.985
